# test.method.notes: Lipid concentration and pharmacokinetics in the plasma of mice after intravenous administration
# Type: in vivo
# measurement.conditions: mouse, male C57BL mice, lipid dose 0.3 mg/kg
experimental.readout: AUC

So what's the measured AUC for this one? CCCCC/C=C\C/C=C\CCCCCCCCOCC(CN(C)C)OCCCCCCCC/C=C\C/C=C\CCCCC (stereo not shown) [Reference Lipid, reference compound] 63.8 µg·h/mL

# iterate: CCCCCC/C=C\COC(=O)CCCCCCCC(CCCCCCCC(=O)OC/C=C\CCCCCC)OC(=O)CCCN(C)C 155 µg·h/mL

Similarly, COC(=O)CCCCCCC/C=C\CCCCCCCCC(CCCCCCCC/C=C\CCCCCCCC(=O)OC)OC(=O)CCCN(C)C ? 122 µg·h/mL

Similarly, CCOC(=O)CCCC/C=C\CCCCCCCCC(CCCCCCCC/C=C\CCCCC(=O)OCC)OC(=O)CCCN(C)C ? 116 µg·h/mL
